Counter-ions that a name gives are not always drawn.
Provide the recorded melting point for the entries that follow.

Prompt line: Returns the measured melting point for the input molecule. Input: CCNCc1cccc(NC(=O)c2n[nH]c3ccc(-c4cncc5ccccc45)cc23)c1 (as salt: HCl) [Compound No. 14, dihydrochloride]
Response line: > 135 °C

Prompt line: Returns the measured melting point for the input molecule. Input: O=C(Nc1ccncc1)c1n[nH]c2ccc(-c3cn[nH]c3)cc12
Response line: > 250 °C

Prompt line: Returns the measured melting point for the input molecule. Input: O=C(Nc1ccncc1)c1n[nH]c2ccc(-c3ccc(Cl)nc3)cc12
Response line: > 250 °C

Prompt line: Returns the measured melting point for the input molecule. Input: O=C(Nc1ccncc1)c1n[nH]c2ccc(-c3cncc4[nH]ccc34)cc12
Response line: > 250 °C

Prompt line: Returns the measured melting point for the input molecule. Input: CCNCc1cccc(NC(=O)c2n[nH]c3ccc(-c4cncc5[nH]ccc45)cc23)c1
Response line: > 250 °C

Prompt line: Returns the measured melting point for the input molecule. Input: O=C(Nc1ccncc1)c1n[nH]c2ccc(-c3cncc4ccccc34)cc12
Response line: > 250 °C
